Test system: human Factor XI mRNA
Assay: Dose-dependent inhibition in HepG2 cells, electroporation (Example 4)
Format: cell-based
Details: 20 μM, 16 hours
In the oligonucleotide strings, read from the 5' end, every base follows the letter of its sugar. An asterisk marks phosphorothioate; unmarked linkages are phosphodiester. Other units and linkages are bracketed, terminal groups are in braces. A string of capitals states the bases alone. e = 2'-O-(2-methoxyethyl) (MOE); [5mC] = 5-methylcytosine; d = 2'-deoxy (DNA)
recorded.endpoint: percent inhibition of Factor XI mRNA, relative to untreated control cells (%)

substance="416850 (antisense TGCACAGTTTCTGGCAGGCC; 5-10-5 gapmer, wing sugar chemistry not given here, further chemistry not given here) [compound 416850]" reported_result=91
substance="417000 (antisense eT*eG*d[5mC]*dA*d[5mC]*dA*dG*dT*dT*dT*d[5mC]*dT*dG*dG*d[5mC]*eA*eG*eG*e[5mC]*e[5mC]) [compound 417000]" reported_result=89
substance="412203 (antisense eA*eA*eT*eG*eT*d[5mC]*dT*dT*dT*dG*dT*dT*dG*d[5mC]*dA*eA*eG*e[5mC]*eG*e[5mC]) [compound 412203]" reported_result=91
substance="416895 (antisense eT*eA*eT*dG*d[5mC]*d[5mC]*d[5mC]*dT*dT*d[5mC]*dA*dT*dG*dT*d[5mC]*dT*dA*eG*eG*eT) [compound 416895]" reported_result=91
substance="416969 (antisense eG*e[5mC]*d[5mC]*d[5mC]*dT*dT*d[5mC]*dA*dT*dG*dT*d[5mC]*dT*dA*dG*eG*eT*e[5mC]*e[5mC]*eA) [compound 416969]" reported_result=92
substance="417003 (antisense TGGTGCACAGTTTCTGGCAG; 2-13-5 gapmer, wing sugar chemistry not given here, further chemistry not given here) [compound 417003]" reported_result=89
substance="416923 (antisense eT*eG*e[5mC]*dA*d[5mC]*dA*dG*dT*dT*dT*d[5mC]*dT*dG*dG*d[5mC]*dA*dG*eG*e[5mC]*e[5mC]) [compound 416923]" reported_result=90
substance="416984 (antisense e[5mC]*eA*dA*d[5mC]*d[5mC]*dG*dG*dG*dA*dT*dG*dA*dT*dG*dA*eG*eT*eG*e[5mC]*eA) [compound 416984]" reported_result=90
substance="416972 (antisense eT*eA*dT*dG*d[5mC]*d[5mC]*d[5mC]*dT*dT*d[5mC]*dA*dT*dG*dT*d[5mC]*eT*eA*eG*eG*eT) [compound 416972]" reported_result=88
substance="416896 (antisense eT*eT*eA*dT*dG*d[5mC]*d[5mC]*d[5mC]*dT*dT*d[5mC]*dA*dT*dG*dT*d[5mC]*dT*eA*eG*eG) [compound 416896]" reported_result=89
substance="416941 (antisense eG*eG*e[5mC]*dA*dG*d[5mC]*dG*dG*dA*d[5mC]*dG*dG*d[5mC]*dA*dT*dT*dG*eG*eT*eG) [compound 416941]" reported_result=89
substance="416892 (antisense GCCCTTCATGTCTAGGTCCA; 3-14-3 chimeric gapmer, wing sugar chemistry not given here, further chemistry not given here) [compound 416892]" reported_result=92
